Experiment: in vitro
Conditions: human, whole blood; level measured in red blood cells
Description: Compound level in Red Blood Cells at 60 min, after exposure of 10 mL of Blood to compound solution by HPLC method
Readout label: concentration at 1 h
Please answer using the number first and the unit second.

Some molecules with recorded concentration at 1 h:
Molecule	Experimental value
NCCc1ccc(S(N)(=O)=O)cc1	162 µM
CC(=O)/N=c1/sc(S(N)(=O)=O)nn1C [METHAZOLAMIDE]	168 µM

Then there is this molecule:
I would be grateful if you could share the reported concentration at 1 h for Cc1cc(C)[n+](Cc2ccc(S(N)(=O)=O)cc2)cc1C.[O-][Cl+3]([O-])([O-])[O-] .
0.4 µM

* * *

Measured Ki on Carbonic anhydrase 1 (Homo sapiens, UniProt P00915) follows.
Sequence (P00915 whole entry): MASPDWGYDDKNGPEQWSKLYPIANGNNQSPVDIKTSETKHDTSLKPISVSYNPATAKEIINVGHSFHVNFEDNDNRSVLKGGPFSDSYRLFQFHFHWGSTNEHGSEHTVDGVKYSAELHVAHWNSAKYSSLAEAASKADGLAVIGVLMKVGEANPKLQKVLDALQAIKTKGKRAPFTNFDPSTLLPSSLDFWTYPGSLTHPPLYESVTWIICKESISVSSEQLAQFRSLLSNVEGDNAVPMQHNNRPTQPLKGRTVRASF
Supply the numeric figure in nM, leaving out any unit text.

Some compounds with recorded Ki:
Structure smiles string	Ki / nM
NS(=O)(=O)c1ccc(CC/N=C(S)/N=C2/C=CC(=C3c4ccc(O)cc4Oc4cc(O)ccc43)C(C(=O)O)=C2)cc1	1300
NS(=O)(=O)c1ccc(/N=C(S)/N=C2/C=CC(=C3c4ccc(O)cc4Oc4cc(O)ccc43)C(C(=O)O)=C2)c(F)c1	980
Cc1cc(C)[n+](Cc2ccc(S(N)(=O)=O)cc2)cc1C.[O-][Cl+3]([O-])([O-])[O-]	7000

Then there is this compound:
I would be grateful if you could share the reported Ki for NS(=O)(=O)c1ccc(C/N=C(S)/N=C2/C=CC(=C3c4ccc(O)cc4Oc4cc(O)ccc43)C(C(=O)O)=C2)cc1 .
1450

* * *

Measured pKi on Carbonic anhydrase 2 (Homo sapiens) follows.
Scale for pKi: -log10 of concentration given in mol/L; no unit attached.

Some compounds with recorded pKi:
Structure smiles string	Tested system	Experimental value
NS(=O)(=O)c1ccc(/N=C(S)/N=C2/C=CC(=C3c4ccc(O)cc4Oc4cc(O)ccc43)C(C(=O)O)=C2)c(I)c1	Carbonic anhydrase 2 (Homo sapiens)	7.40
NS(=O)(=O)c1ccc(/N=C(S)/N=C2/C=CC(=C3c4ccc(O)cc4Oc4cc(O)ccc43)C(C(=O)O)=C2)c(Cl)c1	Carbonic anhydrase 2 (Homo sapiens)	7.28

Then there is this compound:
I would be grateful if you could share the reported pKi for Cc1cc(C)[n+](Cc2ccc(S(N)(=O)=O)cc2)cc1C.[O-][Cl+3]([O-])([O-])[O-] .
7.30

* * *

Target: Carbonic anhydrase 9 (Homo sapiens, UniProt Q16790)
Readout label: pKi
Scale for pKi: -log10 of concentration given in mol/L; no unit attached.

Some molecules with recorded pKi:
Structure smiles string	Readout label	Experimental value
NS(=O)(=O)c1ccc(/N=C(S)/N=C2/C=CC(=C3c4ccc(O)cc4Oc4cc(O)ccc43)C(C(=O)O)=C2)c(Br)c1	pKi	7.46
NS(=O)(=O)c1ccc(C/N=C(S)/N=C2/C=CC(=C3c4ccc(O)cc4Oc4cc(O)ccc43)C(C(=O)O)=C2)cc1	pKi	7.59
NS(=O)(=O)c1ccc(/N=C(S)/N=C2/C=CC(=C3c4ccc(O)cc4Oc4cc(O)ccc43)C(C(=O)O)=C2)c(I)c1	pKi	7.51

Then there is this molecule:
I would be grateful if you could share the reported pKi for NS(=O)(=O)c1ccc(/N=C(S)/N=C2/C=CC(=C3c4ccc(O)cc4Oc4cc(O)ccc43)C(C(=O)O)=C2)c(F)c1 .
7.52

* * *

Assay: in vitro
Details: human, whole blood; level measured in red blood cells
Description: Compound level in Red Blood Cells at 48 h, after exposure of 10 mL of Blood to compound solution by HPLC method
compounds and their reported concentration at 48 h
Supply the numeric figure in µM, leaving out any unit text.

Some compounds with recorded concentration at 48 h:
Compound	Uom	concentration at 48 h
NCCc1ccc(S(N)(=O)=O)cc1	µM	167
Cc1cc(C)[n+](Cc2ccc(S(N)(=O)=O)cc2)cc1C.[O-][Cl+3]([O-])([O-])[O-]	µM	0.3

Then there is this compound:
I would be grateful if you could share the reported concentration at 48 h for CC(=O)/N=c1/sc(S(N)(=O)=O)nn1C [METHAZOLAMIDE] .
167
